Where a name gives a salt, the structure may show the parent alone.
property: melting point

melting point reading for CCOc1cc2c(cc1OC)C(c1ccc(C(=O)N=C(N(C)C)N(C)C)cc1)=NC1CCN(C)CC21 (single isomer, unassigned) (as salt: hydrochloride) : 169 to 175 °C

melting point reading for CCOc1cc2c(cc1OC)C(c1ccc(C(=O)NC(=N)N(C)C)cc1)=NC1CC[N+](C)([O-])CC21 (single isomer, unassigned) : 220 to 224 °C

melting point reading for CCOc1cc2c(cc1OC)C(c1cccc(C(=O)NC(=N)N(C)C)c1)=NC1CCN(C)CC21 (stereo not drawn) : 186 to 188 °C

melting point reading for CCOc1cc2c(cc1OC)C(c1ccc(C(=O)NC(=N)N(C)C)cc1)=NC1CCN(C)CC21 (stereo not drawn) (as salt: hydrochloride) [Compound 3, dihydrochloride] : 134 to 141 °C

melting point reading for CCOc1cc2c(cc1OC)C(c1ccc(C(=O)N=C(N)N3CCN(C)CC3)cc1)=NC1CCN(C)CC21 (stereo not drawn) (as salt: hydrochloride) [Compound 6, dihydrochloride] : 209 to 215 °C

melting point reading for CCOc1cc2c(cc1OC)C(c1ccc(C(=O)NC(=N)N(C)CCO)cc1)=NC1CCN(C)CC21 (stereo not drawn) (as salt: hydrochloride) [Compound 4, dihydrochloride] : 172 to 179 °C

====

Assign IC50 to each entry below.
- study-target: PDE3 (cGMP-inhibited) (Homo sapiens, UniProt Q14432)
- Construct: investigated in homogenates of human platelets; from tissue; host or cells: homogenates of human platelets
- Sequence (Q14432 whole entry): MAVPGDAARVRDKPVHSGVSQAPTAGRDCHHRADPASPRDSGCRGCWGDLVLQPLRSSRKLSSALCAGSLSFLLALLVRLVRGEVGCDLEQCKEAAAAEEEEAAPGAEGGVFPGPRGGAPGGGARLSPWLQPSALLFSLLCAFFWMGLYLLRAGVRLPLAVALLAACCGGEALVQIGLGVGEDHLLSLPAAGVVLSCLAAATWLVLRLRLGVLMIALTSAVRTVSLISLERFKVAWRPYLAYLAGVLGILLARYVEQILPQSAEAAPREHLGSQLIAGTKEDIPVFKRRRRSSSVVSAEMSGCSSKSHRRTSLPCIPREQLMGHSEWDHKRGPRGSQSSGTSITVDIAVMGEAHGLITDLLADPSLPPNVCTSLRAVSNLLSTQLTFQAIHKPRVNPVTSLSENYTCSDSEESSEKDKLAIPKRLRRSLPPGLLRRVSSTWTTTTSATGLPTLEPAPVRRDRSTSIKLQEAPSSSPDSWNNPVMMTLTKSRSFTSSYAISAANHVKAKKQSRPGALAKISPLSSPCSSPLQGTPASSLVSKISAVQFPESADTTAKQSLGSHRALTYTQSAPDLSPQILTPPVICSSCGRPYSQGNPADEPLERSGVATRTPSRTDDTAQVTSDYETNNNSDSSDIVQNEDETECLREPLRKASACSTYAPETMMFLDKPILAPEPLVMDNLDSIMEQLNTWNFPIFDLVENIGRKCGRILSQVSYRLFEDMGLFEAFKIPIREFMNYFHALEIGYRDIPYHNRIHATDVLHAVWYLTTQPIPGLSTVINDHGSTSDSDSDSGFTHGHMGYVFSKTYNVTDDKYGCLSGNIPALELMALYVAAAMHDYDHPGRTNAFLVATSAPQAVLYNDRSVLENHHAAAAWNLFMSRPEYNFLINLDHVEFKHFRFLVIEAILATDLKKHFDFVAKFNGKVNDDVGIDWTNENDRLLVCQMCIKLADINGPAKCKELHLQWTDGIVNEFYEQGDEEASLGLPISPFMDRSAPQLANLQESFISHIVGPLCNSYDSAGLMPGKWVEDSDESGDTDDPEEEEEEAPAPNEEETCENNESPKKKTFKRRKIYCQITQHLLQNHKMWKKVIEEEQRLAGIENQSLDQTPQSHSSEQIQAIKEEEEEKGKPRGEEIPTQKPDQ
- test: Inhibition of PDE isoenzymes: PDE3
- Assay type: biochemical
- applied-conditions: homogenates of human platelets, cAMP or cGMP as substrate; read-out: PDE3 [-log IC50, mol/l] (converted)
Counter-ions that a name gives are not always drawn.
Only the number, expressed in nM, is required.

IC50 reading for CCOc1cc2c(cc1OC)C(c1ccc(C(=O)NC(=N)N(C)C)cc1)=NC1CCN(C)CC21 (stereo not shown) [Compound 3, dihydrochloride] : 87.1

IC50 reading for CCOc1cc2c(cc1OC)C(c1ccc(C(=O)NC(=N)NCC3CCCCC3)cc1)=N[C@H]1CCN(C)C[C@@H]21 (relative stereo) [Compound 20] : 97.7

IC50 reading for CCOc1cc2c(cc1OC)C(c1ccc(C(=O)NC(=N)N(CC)CC)cc1)=NC1CCN(C)CC21 (stereo not shown) [Compound 2, dihydrochloride] : 42.7

IC50 reading for CCOc1cc2c(cc1OC)C(c1ccc(C(=O)NC(=N)NCC(C)C)cc1)=N[C@H]1CCN(C)C[C@@H]21 (relative stereo) [Compound 17] : 123

IC50 reading for CCOc1cc2c(cc1OC)C(c1cccc(C(=O)NC(=N)N(C)C)c1)=NC1CCN(C)CC21 (stereo not shown) [Compound 10] : 891

IC50 reading for CCCCNC(=N)NC(=O)c1ccc(C2=N[C@H]3CCN(C)C[C@H]3c3cc(OCC)c(OC)cc32)cc1 (relative stereo) [Compound 21] : 129

IC50 reading for CCOc1cc2c(cc1OC)C(c1ccc(C(=O)NC(=N)N)cc1)=N[C@H]1CCN(C)C[C@@H]21 (relative stereo) [Compound 7] : 195

====

- study-target: PDE3 (cGMP-inhibited) (Homo sapiens, UniProt Q14432)
- Construct: investigated in homogenates of human platelets; from tissue; host or cells: homogenates of human platelets
- test: Inhibition of PDE isoenzymes: PDE3
- Format: biochemical
- applied-conditions: homogenates of human platelets, cAMP or cGMP as substrate; read-out: PDE3 [-log IC50, mol/l] (converted)
Where a name gives a salt, the structure may show the parent alone.
property: IC50 (µM)
Only the number, expressed in µM, is required.

Record CCNC(=N)NC(=O)c1ccc(C2=N[C@H]3CCN(C)C[C@H]3c3cc(OCC)c(OC)cc32)cc1 (relative stereo) has PDE3 (cGMP-inhibited) (Homo sapiens, UniProt Q14432) IC50 equal to 0.245

Record CCOc1cc2c(cc1OC)C(c1ccc(C(=O)NC(=N)NC3CCCCC3)cc1)=N[C@H]1CCN(C)C[C@@H]21 (relative stereo) has PDE3 (cGMP-inhibited) (Homo sapiens, UniProt Q14432) IC50 equal to 0.132

Record CCOc1cc2c(cc1OC)C(c1ccc(C(=O)N=C(N(C)C)N(C)C)cc1)=NC1CCN(C)CC21 (single isomer, unassigned) [Compound 5, hydrochloride] has PDE3 (cGMP-inhibited) (Homo sapiens, UniProt Q14432) IC50 equal to 0.129

Record CCOc1cc2c(cc1OC)C(c1ccc(C(=O)NC(=N)NC(C)C)cc1)=N[C@H]1CCN(C)C[C@@H]21 (relative stereo) has PDE3 (cGMP-inhibited) (Homo sapiens, UniProt Q14432) IC50 equal to 0.155

Record CCOc1cc2c(cc1OC)C(c1ccc(C(=O)N=C(N)N3CCN(C)CC3)cc1)=NC1CCN(C)CC21 (stereo not drawn) [Compound 6, dihydrochloride] has PDE3 (cGMP-inhibited) (Homo sapiens, UniProt Q14432) IC50 equal to 0.363

Record CCOc1cc2c(cc1OC)C(c1ccc(C(=O)NC(=N)N3CCOCC3)cc1)=NC1CCN(C)CC21 (stereo not drawn) [Compound 1, dihydrochloride] has PDE3 (cGMP-inhibited) (Homo sapiens, UniProt Q14432) IC50 equal to 0.135

Values compiled from patent US6936622B2.
